- Test system: P. falciparum African D6 clone
- assay_notes: microbe, parasite or virus in culture
- Format: cell-based
- measurement_parameters: Plasmodium falciparum, D6, read-out: D6 IC50
metric: IC50
# do not omit the unit; it follows the number

CC(=O)O[C@@H]1CC[C@@]2(C)[C@@H](C1)C[C@@H](OC(C)=O)[C@@H]1[C@@H]2C[C@H](OC(C)=O)[C@]2(C)[C@@H]([C@H](C)CCCNCCNc3ccnc4cc(Cl)ccc34)CC[C@@H]12 | 16.9 nM

Consider the compound shown here: CCN(CC)CCCC(C)Nc1ccnc2cc(Cl)ccc12 (centres unmarked) What is its recorded IC50?
12.3 nM
